- STUDY_TARGET: T1, N1 binding to cell surface expressed hJ1 (Homo sapiens, UniProt P78504)
- T1 construct: cell expressed full length human J1 (hJ1; HEK293 transfectants); expressed in transfected cells; host or cells: HEK293
- T1 sequence (P78504 34-1218): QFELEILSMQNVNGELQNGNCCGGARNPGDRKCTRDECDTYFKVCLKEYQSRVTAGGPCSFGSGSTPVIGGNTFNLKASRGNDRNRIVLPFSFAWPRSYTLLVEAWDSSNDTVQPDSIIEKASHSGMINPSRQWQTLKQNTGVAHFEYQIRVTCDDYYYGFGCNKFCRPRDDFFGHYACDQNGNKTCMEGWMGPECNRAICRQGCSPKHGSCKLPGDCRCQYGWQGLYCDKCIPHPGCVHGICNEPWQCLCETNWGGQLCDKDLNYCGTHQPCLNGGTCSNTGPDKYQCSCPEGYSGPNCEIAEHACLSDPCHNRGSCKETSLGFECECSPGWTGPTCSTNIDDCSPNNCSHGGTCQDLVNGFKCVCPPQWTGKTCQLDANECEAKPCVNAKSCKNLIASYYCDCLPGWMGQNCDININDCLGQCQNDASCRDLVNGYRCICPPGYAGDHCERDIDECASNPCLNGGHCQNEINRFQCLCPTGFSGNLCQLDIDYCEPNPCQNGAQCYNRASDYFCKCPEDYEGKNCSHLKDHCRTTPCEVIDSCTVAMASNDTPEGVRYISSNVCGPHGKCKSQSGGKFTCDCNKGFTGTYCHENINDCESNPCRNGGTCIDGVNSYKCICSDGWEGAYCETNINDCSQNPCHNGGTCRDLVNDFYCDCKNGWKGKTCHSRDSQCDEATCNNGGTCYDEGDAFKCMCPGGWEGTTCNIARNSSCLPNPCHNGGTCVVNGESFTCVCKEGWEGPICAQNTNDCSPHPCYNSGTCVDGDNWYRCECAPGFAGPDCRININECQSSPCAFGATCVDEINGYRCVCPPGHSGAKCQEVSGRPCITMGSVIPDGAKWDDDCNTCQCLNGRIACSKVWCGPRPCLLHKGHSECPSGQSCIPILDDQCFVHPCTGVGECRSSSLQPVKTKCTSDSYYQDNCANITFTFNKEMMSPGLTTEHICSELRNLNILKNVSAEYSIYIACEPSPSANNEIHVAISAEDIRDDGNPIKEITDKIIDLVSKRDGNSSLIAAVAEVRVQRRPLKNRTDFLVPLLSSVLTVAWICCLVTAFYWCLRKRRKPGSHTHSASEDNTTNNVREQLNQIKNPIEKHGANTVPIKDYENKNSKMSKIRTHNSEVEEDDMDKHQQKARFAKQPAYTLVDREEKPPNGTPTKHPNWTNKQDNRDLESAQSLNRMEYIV
- ASSAY_INFO: Notch binding blocking assay (FACS): N1 EGF11-13 beads staining human J1-expressing cells
- EXPERIMENTAL_CONDITIONS: final antibody concentration 0.4 μg/ml
MEASURE_NAME: Blocking of Notch1 binding to cell surface Jagged 1

1) J1-65D variant 7: humanised/de-immunised J1-65D: J1-65D_VL_2 + J1-65D_VH_3 (antibody, V domains shown) VH: QVQLVQSGAEVKKPGSSVKVSCKASGYTFTDYEMHWVRQAPGQGLEWMGAIQPGGGGTAYAQKFQGRVTLTADKSTSTAYMELSSLRSEDTAVYYCTRRGYDDYPFAYWGQGTLVTVSSASTKGP VL: DIQMTQSPSSLSASVGDRVTITCRASGNIHNYLAWYQQKPGKAPKLLIYNAKTLADAVPSRFSGSGSGTDYTLTISSLQPEDFATYYCQHFWSAPWTFGGGTKLEIKRT	+ (Complete blocking)
2) J1-65D chimeric: chimeric antibody with unaltered CDRs: J1-65D_VL + J1-65D_VH (antibody, V domains shown) VL: DIQLTQSPASLSASVGETVTITCRASGNIHNYLAWYQQKQGKSPQLLVYNAKTLADDIPSRFSGSGSGTQYSLKINSLQPEDFGSYYCQHFWSAPWTFGGGTKLEIK VH: QVQLQQPGAELVRPGASVKLSCKALGYTFTDYEMHWVKETPVHGLEWIGAIQPGGGGTAYNQKFKGKATLTADKSSSTAYMELSSLTSEDSAVYYCTRRGYDDYPFAYWGQGTLVTVSS	+ (Complete blocking)
